MEASURED ON: AM2 receptor (1321N1 cells transfected with CALCRL+RAMP3) (Homo sapiens, UniProt O60896+Q16602)
Construct: host or cells: 1321N1 cells
Sequence (Q16602 23-461): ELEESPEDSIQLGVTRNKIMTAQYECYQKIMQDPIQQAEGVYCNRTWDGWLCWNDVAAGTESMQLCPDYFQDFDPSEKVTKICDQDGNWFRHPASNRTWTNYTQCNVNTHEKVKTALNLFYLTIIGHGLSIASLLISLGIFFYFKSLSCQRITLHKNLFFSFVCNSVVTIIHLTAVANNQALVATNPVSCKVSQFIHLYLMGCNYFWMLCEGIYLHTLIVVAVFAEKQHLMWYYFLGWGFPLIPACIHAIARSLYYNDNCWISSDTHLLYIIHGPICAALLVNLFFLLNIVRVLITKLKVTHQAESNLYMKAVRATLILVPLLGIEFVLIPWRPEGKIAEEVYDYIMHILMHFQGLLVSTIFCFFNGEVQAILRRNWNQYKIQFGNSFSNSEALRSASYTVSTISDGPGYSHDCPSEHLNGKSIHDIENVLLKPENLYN
Sequence (O60896 24-148): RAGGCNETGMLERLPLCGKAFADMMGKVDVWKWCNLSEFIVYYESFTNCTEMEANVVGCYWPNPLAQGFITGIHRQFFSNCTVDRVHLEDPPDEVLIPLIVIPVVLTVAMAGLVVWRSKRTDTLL
TEST NAME: AM2 receptor inhibition, LANCE cAMP agonist-antagonist competition assay
Type: cell-based
DETAILS: inhibition of AM induced cAMP activation, read-out: AM2 D2 protocol: pIC50 (converted)
// class assignment uses IC50 with these ranges: lo = under 5 nM, med = from 5 nM up to 60 nM, hi = 60 nM and over

{"columns": ["SMILES STR", "ASSIGNED CATEGORY"],
 "data": [
  ["CNCc1ccccc1CN(CC(=O)Nc1ccc2c(c1)C[C@@]1(C2)C(=O)Nc2ncccc21)C(=O)C1(C)CCN(CCO)CC1", "med"],
  ["CNCc1ccccc1CN(CC(=O)Nc1ccc2c(c1)C[C@@]1(C2)C(=O)Nc2ncccc21)C(=O)C1(C)CCN(C)CC1", "lo"],
  ["CCC1(C(=O)N(CC(=O)Nc2ccc3c(c2)C[C@@]2(C3)C(=O)Nc3ncccc32)Cc2ccccc2CNC)CCN(C(=O)N2CCC(F)(F)CC2)CC1", "med"],
  ["CCC1(C(=O)N(CC(=O)Nc2ccc3c(c2)C[C@@]2(C3)C(=O)Nc3ncccc32)Cc2ccccc2CNC)CCN(C(=O)[C@H]2COCCN2)CC1", "med"],
  ["CCC1(C(=O)N(CC(=O)Nc2ccc3c(c2)C[C@@]2(C3)C(=O)Nc3ncccc32)Cc2ccccc2CNC)CCN(C(=O)C(C)(C)F)CC1", "lo"],
  ["CCC1(C(=O)N(CC(=O)Nc2ccc3c(c2)C[C@@]2(C3)C(=O)Nc3ncccc32)Cc2ccccc2CNC)CCN(C(=O)COCCOCCOCCOCCOCCOCCOC)CC1", "med"],
  ["CNCc1ccc(F)cc1CN(CC(=O)Nc1ccc2c(c1)C[C@@]1(C2)C(=O)Nc2ncccc21)C(=O)C1(C)CCNCC1", "med"],
  ["CNCc1ccccc1CN(CC(=O)Nc1ccc2c(c1)C[C@@]1(C2)C(=O)Nc2ncccc21)C(=O)C1(C)CN(C(C)=O)C1", "hi"],
  ["CCC1(C(=O)N(CC(=O)Nc2ccc3c(c2)C[C@@]2(C3)C(=O)Nc3ncccc32)Cc2ccccc2CNC)CCN(C(=O)N2CCC(C(F)(F)F)CC2)CC1", "hi"],
  ["CCC1(C(=O)N(CC(=O)Nc2ccc3c(c2)C[C@@]2(C3)C(=O)Nc3ncccc32)Cc2ccccc2CNC)CCN(C(=O)c2ccn[nH]2)CC1", "lo"],
  ["CCC1(C(=O)N(CC(=O)Nc2ccc3c(c2)C[C@@]2(C3)C(=O)Nc3ncccc32)Cc2ccccc2CNC)CCN(C(=O)c2cc(C)n[nH]2)CC1", "med"]
]}

Hey, just so you know, these numbers are from patent US20230036854A1.
